System: MDA-MB-435
Assay Text: NCI tumour cell line growth inhibition, 48 h

{"columns": ["Molecule", "TGI"],
 "data": [
  ["Cc1cc(C)c2nc3nc(C)cc(C)c3c(N)c2c1", "16.6 µM"],
  ["c1ccc2sc(C3(N4CCC5(CC4)OCCO5)CCCCC3)cc2c1", "> 100 µM"],
  ["O=C(O)c1ccccc1-c1ccccc1C(=O)Nc1ccc2c(c1)[nH]c(=O)c1ccccc12", "> 100 µM"],
  ["CCCC(=O)Nc1ccc2c(c1)CN1C(=O)c3ccccc3C1=N2", "> 100 µM"],
  ["COC(=O)c1ccc(COC(=O)N2C=CCC2C(=O)O)cc1 (stereo not given)", "> 100 µM"],
  ["Clc1ccc(C2=NN[C@H](c3cn(-c4ccccc4)nc3-c3ccccc3)C2)cc1", "> 100 µM"],
  ["NCCCCN(CCCN)Cc1ccc2ccccc2c1", "> 100 µM"],
  ["COc1ccc2cc(Cn3cc[n+](Cc4ccc5ccccc5c4)c3)ccc2c1", "4.12 µM"],
  ["COc1cc(C2S/C(=C/c3ccccc3)C(=O)N2c2cc(Cl)c(Cl)cc2Cl)cc(OC)c1OC (stereo not given)", "> 100 µM"],
  ["O=C(NCCNc1nccc(-c2c(-c3cccc(O)c3)nc3sccn23)n1)Nc1cccc(C(F)(F)F)c1", "4.94 µM"],
  ["COC(=O)CCc1ccc2c(c1)CC1(Cc3ccccc3C1)C2", "> 100 µM"],
  ["CCCC1=C(C(=O)OCC)C(c2ccccc2OC)C(C#N)=C(N)O1 (stereo not given)", "> 100 µM"],
  ["CC(C)(C)OC(=O)CC(NC(=O)OC(C)(C)C)C(=O)NC(C(=O)O)C(O)c1ccccc1 (stereo not given)", "> 100 µM"],
  ["Nc1ncnc2c1ncn2C1C=CC(COS(N)(=O)=O)C1 (stereo not given)", "> 100 µM"],
  ["CN(C)C1(N(C)C)Oc2c(c(=O)n(C)c(=O)n2C)C(c2ccccc2Br)C1(F)F (stereo not given)", "> 100 µM"],
  ["CC(=O)OC[C@@]1(C)[C@@H]2[C@@H]3[C@@]4(CO[C@]3(C)C(=O)[C@@]3(O)C[C@H](C)[C@H](OC(C)=O)[C@@H]3[C@H]4OC(C)=O)[C@H](OC(=O)c3ccccc3)C[C@@H]21", "> 100 µM"],
  ["O=C1/C(=C/c2ccccc2F)CN(C(=O)C(Cl)Cl)C/C1=C\\c1ccccc1F", "1.01 µM"],
  ["C=C1CC2CC(=O)C(O)C(C1)C2 (stereo not given)", "> 100 µM"],
  ["O=C1N=NC(=O)N1c1cc(C(F)(F)F)cc(C(F)(F)F)c1", "33.2 µM"],
  ["CC(=O)O[C@H]1CC[C@@]2(C)C(=C[C@H](c3ccc(O)cc3)[C@H]3[C@@H]4CC[C@H](OC(C)=O)[C@@]4(C)CC[C@@H]32)C1", "62.6 µM"]
]}

----------
System: PC-3 prostate
Assay Text: NCI tumour cell line growth inhibition, 48 h; in the data active = GI50 below about 0.43 µM; inactive = the rest
Classes used: active, inactive

{"columns": ["Compound", "Label Value"],
 "data": [
  ["O=C(Nc1ccc(OCc2nnc(-c3ccccc3)o2)c(F)c1)Nc1ccc(Cl)c(C(F)(F)F)c1", "inactive"],
  ["COc1ccc(-c2nc(N3CCOCC3)c3sc(CN(C)c4ncc(C(=O)NO)cn4)cc3n2)cn1", "active"],
  ["O=C1CCC(N2Cc3c(C#CCCCNC(=O)c4cc5c(o4)C(=O)c4ccccc4C5=O)cccc3C2=O)C(=O)N1 (centres undefined)", "inactive"],
  ["O=C1CC[C@H](c2ccc(O)c3c2C(=O)[C@@H]2O[C@@H]2C3=O)c2cccc(O)c21", "inactive"],
  ["COc1cc(/C=C2\\C(=O)N(c3ccccc3)c3ccccc32)cc(OC)c1OC", "inactive"],
  ["S=C(c1ccc2c(c1)OCO2)N1CCN(c2cccc(Cl)c2)CC1", "inactive"],
  ["CS(=O)(=O)c1ccc(Oc2cc(F)cc(C#N)c2)c2c1[C@H](O)C(F)(F)C2", "inactive"],
  ["Cc1nn(-c2ccccc2)c2nc3c(nc12)C1=NCCN1C(c1ccc(Cl)cc1)N3 (centres undefined)", "inactive"],
  ["CCN(CC)CCCC(Cc1ccccc1)Nc1c2ccc(Cl)cc2nc2ccc(OC)cc12 (centres undefined)", "inactive"]
]}

----------
Tested on: HOP-62 NSCLC
Assay Text: NCI tumour cell line growth inhibition, 48 h
Class rule met: TGI at least 20 µM. Class rule not met: TGI below 20 µM.

{"columns": ["Molecule", "Label Value"],
 "data": [
  ["Cc1c2cc[n+](C)cc2c(C)c2c1[nH]c1ccc(Cl)cc12", "rule not met"],
  ["O=C1C2=Cc3ccccc3OC2(O)Oc2ccc(O)cc21 (stereo not given)", "rule met"],
  ["COc1cc(-n2cnc(-c3ccc(Cl)cc3)c2)cc(OC)c1OC", "rule met"],
  ["COc1ccc(NC(=O)CC(=O)N2N=C(N(CCC#N)c3cccc(C)c3)CC2c2ccccc2)cc1 (stereo not given)", "rule met"],
  ["COc1cc2c(cc1OC)C1Cc3cc(OC)c(OC)cc3C(C2)O1", "rule met"],
  ["O=C1N=NC(=O)N1c1cc(C(F)(F)F)cc(C(F)(F)F)c1", "rule not met"],
  ["O=C1/C(=C/c2ccccc2F)CN(C(=O)C(Cl)Cl)C/C1=C\\c1ccccc1F", "rule not met"],
  ["COc1cc(C2CC(c3ccccc3)=NN2C(C)=O)cc(OC)c1OC (stereo not given)", "rule met"],
  ["CN(C)CCNC1=CC(=O)c2nc3ccccc3c3ccnc1c23", "rule met"],
  ["CC1OC(n2c3ccccc3c3c4c(c5c6ccccc6[nH]c5c32)C(=O)N(CCN2CCOCC2)C4=O)CC(O)C1O (stereo not given)", "rule not met"]
]}

----------
Consider the following compounds and their measured log10 of TGI readings.
Test system: BT-549 breast
Assay Text: NCI tumour cell line growth inhibition, 48 h
Property Name: log10 of TGI (log10 of the value in µM)

{"columns": ["Compound", "log10 of TGI"],
 "data": [
  ["CC1=CC(=O)[C@@H](O)[C@]2(C)[C@H]3[C@@]4(O)OC[C@@]35[C@@H](C[C@@H]12)OC(=O)C(OC(=O)CC1=CCCC1)[C@H]5[C@@H](C)[C@H]4O (stereo not given in full)", -0.70],
  ["O=C1CCC(N2Cc3c(C#CCCCNC(=O)c4cc5c(o4)C(=O)c4ccccc4C5=O)cccc3C2=O)C(=O)N1 (stereo not given)", 0.50],
  ["O=[N+]([O-])C(=C(N1CCCCC1)N1CCCCC1)/C(Cl)=C(\\Cl)[N+](=O)[O-]", 1.28],
  ["CCN(CC)CCCCNc1ncc2cc(-c3cc(OC)cc(OC)c3)c(NC(=O)NC(C)(C)C)nc2n1", 1.26],
  ["Clc1ccc(C2=NN[C@H](c3cn(-c4ccccc4)nc3-c3ccccc3)C2)cc1", 1.45],
  ["N#Cc1c(-c2cccc(Cl)c2)cc(-c2ccc(Cl)cc2)nc1N", 1.56],
  ["Cc1sc(Nc2ccccc2[N+](=O)[O-])c(C#N)c1C", 1.76],
  ["CCOC(=O)c1[nH]cc(C)c1-c1c[nH]c2ccccc12", 1.97],
  ["O=C(Nc1ccc(OCc2nnc(-c3ccccc3)o2)c(F)c1)Nc1ccc(Cl)c(C(F)(F)F)c1", 1.12],
  ["CC1OC(OC2C(CO)OC(O[C@H]3CC[C@@]4(C)C(=CC[C@H]5[C@@H]6C[C@@H]7O[C@](O)(CC[C@H](C)COC8OC(CO)C(O)C(O)C8O)[C@@H](C)[C@@H]7[C@@]6(C)CC[C@@H]54)C3)C(OC3OC(C)C(O)C(O)C3O)C2O)C(O)C(O)C1O (stereo not given in full)", 1.26]
]}

----------
Test system: HOP-92 NSCLC
Assay Text: NCI tumour cell line growth inhibition, 48 h
Measured TGI accompanies every entry in the list below.

{"columns": ["Molecule", "Limit Sign", "TGI (µM)"],
 "data": [
  ["NC(=O)CCC(NC(=O)Cc1ccccc1)C(=O)O (stereo not given) (tested in a mixture with another compound)", ">", 8130],
  ["NC(=O)Nc1c([N+](=O)[O-])cc(C(F)(F)F)cc1[N+](=O)[O-]", ">", 100],
  ["COc1ccc(C(=O)C(C(=O)C(=O)NC2C3CC4CC(C3)CC2C4)c2ccc(OC)cc2)cc1 (stereo not given)", ">", 100],
  ["N=c1n(Cc2ccccc2)c(N)cc(=O)n1Cc1ccccc1", "=", 10],
  ["Cc1cc(C)c2nc3nc(C)cc(C)c3c(N)c2c1", "=", 19.7],
  ["Cn1c(=O)cc(N=Nc2ccc(Cl)c(Cl)c2)[nH]c1=O", "=", 80.4],
  ["CC(C)(O)CO/N=C1\\C(c2c(O)[nH]c3ccccc23)=Nc2ccccc21", ">", 91.6],
  ["O=C(Nc1ccc(OCc2nnc(-c3ccccc3)o2)c(F)c1)Nc1ccc(Cl)c(C(F)(F)F)c1", "=", 5.17],
  ["COC(=O)C1=C(c2ccc3c(c2)OCO3)OC(c2ccc3c(c2)OCO3)C1 (stereo not given)", ">", 100],
  ["COC(=O)c1cnn2c1ccc1ccccc12", ">", 100]
]}
